Assay: yeast display, Sf9 membrane polyspecificity reagent, FACS + sequencing; frameworks hold sequencing errors
property.label: polyreactivity (PSR sort gate)

QVQLVESGGGLVQAGGSLRLSCAASGTTFTAYAMGWYREAPGKERELVAAINWSGGTTYYADSVKGRFTISRDNAKNTVYLQMTSLKPEDTAVYYCAVDGNFFVEVSPYDYWGQGTQVTVSS: low polyreactivity
QVQLVESGGGLVQAGGSLRLSCAASGFIFLYNAMGWYRQAPGKERELVAAITSSGGTTYYADSVKGRFTISRDNAKNTVYLQMNSLKPEDTAVYYCAARYTGRNGGSTTPEYDYWGQGTQVTVSS: low polyreactivity

----------
Experiment: yeast display, Sf9 membrane polyspecificity reagent, FACS + sequencing; frameworks hold sequencing errors
property.label: polyreactivity (PSR sort gate)

// known answers, use as guide
QVQLVESGGGLVQAGGSLRLSCAASGSTFGPYAMGWYRQAPGKERELVATITRNGGSTYYADSVKGRFTISRDNAKNTVYLQMNSLKPEDTAVYYCNAEGRWSSFTQRMDYWGQGTQVTVSW: low polyreactivity
QVQLVDSGGGLVQAGGSHRLSCADSGTFVYNAMGWYRQAPGKEREFVAAITKSGTSTSYADSVKGRFTISRDNAKNTVYLQMNSLIPEATAVYYCNARRYWYRRAYSVGYDYWGQGTQVTVSA: high polyreactivity
QVQLVESGGGLVHAGGSLRLSCAASGSIFYPYAMGWYRKAPGKERELVAAISRSGGRTYYADSVKGRFTISRDNAKNTVYLQMNSLKPEDTAVYYCNAYYPGNGPRSTSTRYEYWGQGTQVTVSS: high polyreactivity
QVQLVESGGGLVQAGGSLRLSCAASGSTFGSNAMGWYRQEPGKERELVAAITGGGTTSYADSVKGRFTISRDNAKNTVYLQMNSLKPEDTAVYYCNVLFADKSDYWGQGTQVTVSS: low polyreactivity
QVQLVESGGGLVQAGGSLRLSCAASGSIFTRYAMGWYRQAPGKERELVAVISVSGGRTYYADSVKGRFTISRDNAKNTVYLQMNSLKPEDTAVYYCATDYYRPALDYWGQGTQVTVSS: high polyreactivity
QVQLVESGGGLVQAGGSLRLSCAASGIIFDTNAMGWYRQAPGKERELVASISKRGGSTYYADSVKGRFTISRDNAKNTVYLQMNSLKPEDTAVYYCNALRRRQYHDDYWGQGTQVTVSS: high polyreactivity

Provide polyreactivity (PSR sort gate) values for the following items, in order.
1. QVQLEESGGGLVQAGGSLRLSCAASGRTFRTYTMGWYRQAPGTERELVAANSKRGSSTYYADSVKGRFTISRDNAKNTVYLQMNSLKPEDTAVYYCAARSWLSNSPYGYWGQGTQVTVSS
2. QVQLVESGGGLVQAGGSLRLSCAASGRTFETNAMGWYRQAPGKERELVAAISRSGGSTRYADSVKGRFTISRDNAKNTVYLQMNRLKPEDTAVYYCAVRVGLGGGYWGQGTQVTVSS
3. QVQLVESGGVLVQAGGSLRLSCAASGRTYGTYAMGWYRQAPGKERELVAGINGSGGSTYYADSVKGRFTISRDNAKNTVFLQMNSLKPEDTAVYYCYKYGRRPYGLRGYWGEGTQVTVSS

### Response
["high polyreactivity", "high polyreactivity", "high polyreactivity"]

Provide polyreactivity (PSR sort gate) values for the following items, in order.
1. QVQLVESGGGLVQAGGSLRLTCAASGNTFVGNAMGWYRQAPGKERELVAAISRRGGSTYYADSVKGRFTISRDYAKNTVYLQMNSLKPEDTAEYYCAVGWAGRYDYWGQGTQVTVSS
2. QVQLVESGGGLVQAGGSLRLSCAASGFTFAYYAMGWYRQAPGKERELVAAITGSGGRTYYADSVKGRFTISRDNAKNTVYLQMNSLKPEDTAVYYCAADRTVYYLSRTGYDYWGQGTQVTVSS

### Response
["low polyreactivity", "high polyreactivity"]

Provide polyreactivity (PSR sort gate) values for the following items, in order.
1. QVQLVESGGGLVQAGGSLRLSCAASGSIFHKNAMGWYRPAPGNERELVATITSDGSTNYADSVKGRFTISRDNEKNTVYLQMNSLKPEDTAVYDCAAYSQVGGYDYWGQGTQVTVSS
2. QVQLVESGGGLVQAGGSLRLSCAASGRTIGPYVMGWYRQAPGKERELVAAITYIGDRTYYADSVKGRFTISRDNAKNTVYLQMNSLKPEDTAVYYCNADFFSRWGYRYMDYWGQGTQVTVSS
3. QVQLVESGGGLVQAGGSLRLSCAASGSIFTQYAMGWSRQAPGKERELVAVITTGSSTYYADSVKRRFTISRDNAKNTVYLQMNSLKPEDTSVYYCAVRTATRSPRRYGYWGQGTQVTVSS
4. QVQLVESGGGLVQAGGRLRLSCATSGYIFYDYDMGWYRQAPGKERELVAAIRRSTGTTYYADSVKGRFTISRDNEKNTVYLLMISLKPESTAVYYCAALFRPRVHRYDYWGQGTQVTVSS
5. QVQLVESGGGLVQAGGSLRVSCAASGSTFTNYAMGVYRQAPRKERELIARITYNVGRTYYADSVKGRFTISRDNAKNTVYLQMNSLKPEDTAVYYCAAGVGWRYRVRWYYYLGDYWGQVTQVTVSS
6. QVQLVESGGGLVQAGGSLRLSCAASGGIFGANSMGWYRQAPGKERELVATITRGGSTNYADSVKGRFTISRDNAKNTVYLQMNSLKTEDTAVYYCAARFYSRAFWPAYYYWGQGTQVTVSS
7. QVQLVESGGGLVQAGGSLRLSCASSGRTFYINAMVWYRQAPGKERELVAAISIRGGRTYYADSVKGRFTISRDNAKNTVYLQMISLKPEDTAVYYCAADYGSLRQRTLYEYWGQGTQVTVSS

### Response
low polyreactivity
low polyreactivity
high polyreactivity
low polyreactivity
high polyreactivity
high polyreactivity
low polyreactivity
